Sourced from ChEMBL document CHEMBL1681698

# Tested on: LNCaP
# Test Details: Induction of apoptosis in human androgen-dependent LNCAP cells assessed as […] after 24 hrs by MTT assay
# Assay type: functional, cell-based
Outcome Measure: pIC50
Here pIC50 is given on a logarithmic scale as minus log10 of the concentration in mol/L.

Consider the compound shown here: C=CC1CC2(O)CC3(O)CCC=CC3C2(O)C1(O)CCC (stereo unspecified) What is its recorded pIC50? 4.02

====

# Test Details: Induction of apoptosis in human hormone-refractory C4-2B cells assessed as cell viability after 24 hrs by MTT assay
# Assay type: functional
# Test Settings: LNCaP C4-2B
Outcome Measure: IC50 (µM)
Use µM as the unit, but write only the number.

Can you share its IC50? I mean this compound: C=CC1CC2(O)CC3(O)CCC=CC3C2(O)C1(O)CCC (stereo unspecified) 199
